Target: Estrogen receptor (Bos taurus) (UniProt Q9XSB5+P49884)
Assay: Displacement of 17-beta-[3H]-estradiol from Estrogen receptor of calf uterine cytosol at 20 uM
Assay type: protein assay
Task for the reader: assign each of the following compounds its reported Control.
Give a bare numeral; the unit % is implied.

[Q] Data request, read-out Control, for `Oc1ccc([C@@H]2N=CN[C@@H]2c2c(Cl)cc(O)cc2Cl)c(Cl)c1`
[A] 70.3

[Q] Quick one: `Oc1ccc([C@@H]2N=CN[C@@H]2c2c(Cl)cc(O)cc2Cl)c(F)c1`
[A] 40.1

[Q] Quick one: `Oc1ccc([C@H]2N=CN[C@H]2c2ccc(O)cc2)cc1`
[A] 1.7

[Q] Quick one: `Oc1ccc([C@H]2NC=N[C@H]2c2ccc(O)cc2Cl)c(Cl)c1`
[A] 44

[Q] Quick one: `Cc1cc(O)ccc1[C@H]1N=CN[C@H]1c1ccc(O)cc1C`
[A] 0

[Q] Quick one: `Oc1ccc([C@H]2N=CN[C@H]2c2ccc(O)cc2F)c(F)c1`
[A] 20.9

[Q] Quick one: `Oc1ccc([C@H]2N=CN[C@H]2c2ccc(O)cc2I)c(I)c1`
[A] 42.9

---

Task for the reader: assign each of the following compounds its reported EC50.
Biological target: Estrogen receptor (Homo sapiens)
Sequence (P03372 whole entry): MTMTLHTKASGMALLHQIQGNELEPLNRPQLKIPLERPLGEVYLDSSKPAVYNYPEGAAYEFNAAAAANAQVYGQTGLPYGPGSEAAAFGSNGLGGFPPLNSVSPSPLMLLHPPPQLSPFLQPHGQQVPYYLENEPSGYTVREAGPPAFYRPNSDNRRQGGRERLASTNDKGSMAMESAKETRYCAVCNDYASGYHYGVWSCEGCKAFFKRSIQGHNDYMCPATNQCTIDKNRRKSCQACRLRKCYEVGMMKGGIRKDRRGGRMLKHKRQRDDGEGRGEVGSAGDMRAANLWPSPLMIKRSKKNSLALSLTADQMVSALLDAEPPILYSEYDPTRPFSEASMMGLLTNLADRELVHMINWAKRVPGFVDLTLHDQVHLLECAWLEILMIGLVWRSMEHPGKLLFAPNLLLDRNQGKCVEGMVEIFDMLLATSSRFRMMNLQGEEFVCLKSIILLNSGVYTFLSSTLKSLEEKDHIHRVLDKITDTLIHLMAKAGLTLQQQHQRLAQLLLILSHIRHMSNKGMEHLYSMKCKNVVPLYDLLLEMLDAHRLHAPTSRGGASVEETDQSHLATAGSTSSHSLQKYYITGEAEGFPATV
Test: Agonist activity in transcriptional activation assay in MCF-7-2a cells compared to estradiol E2
Give a bare numeral; the unit µM is implied.

[Q] Data request, read-out EC50, for `Oc1ccc([C@H]2N=CN[C@H]2c2ccc(O)cc2I)c(I)c1`
[A] 1.8

[Q] Quick one: `Oc1ccc([C@H]2NC=N[C@H]2c2ccc(O)cc2Cl)c(Cl)c1`
[A] 0.38

[Q] Quick one: `Oc1ccc([C@@H]2N=CN[C@@H]2c2c(Cl)cc(O)cc2Cl)c(F)c1`
[A] 0.62

[Q] Quick one: `Oc1ccc([C@@H]2N=CN[C@@H]2c2c(Cl)cc(O)cc2Cl)c(Cl)c1`
[A] 0.065
